System: BEM1-2
Assay: DHFR-PCA on solid medium, bait BEM1-2 (Fig. 1B)
Assay type: cell-based, Saccharomyces cerevisiae
Settings: bait BEM1-2, label = prey; 2-8 replicates
readout: medrep (log2 median colony size normalized to plate background, PCA score)

molecule="YCR002C (protein, UniProt P25342 1-322, looked up) Cell division control protein …: MDPLSSVQPASYVGFDTITNQIEHRLLKKGFQFNIMVVGQSGLGKSTLINTLFASHLIDSATGDDISALPVTKTTEMKISTHTLVEDRVRLNINVIDTPGFGDFIDNSKAWEPIVKYIKEQHSQYLRKELTAQRERFITDTRVHAILYFLQPNGKELSRLDVEALKRLTEIANVIPVIGKSDTLTLDERTEFRELIQNEFEKYNFKIYPYDSEELTDEELELNRSVRSIIPFAVVGSENEIEINGETFRGRKTRWSAINVEDINQCDFVYLREFLIRTHLQDLIETTSYIHYEGFRARQLIALKENANSRSSAHMSSNAIQR" reported_measurement=3.007
